- Tested on: CCRF-CEM leukemia
- Assay info: NCI tumour cell line growth inhibition, 48 h
Value kind: TGI

[
  {
    "Molecule": "COc1cc([C@@H]2c3cc4c(cc3[C@@H](NCc3cccc(C#N)c3)C3COC(=O)[C@@H]32)OCO4)cc(OC)c1O (stereo partly specified)",
    "Assay system": "CCRF-CEM leukemia",
    "Measured": "> 100 µM"
  },
  {
    "Molecule": "CSc1nc(=O)cnn1C",
    "Assay system": "CCRF-CEM leukemia",
    "Measured": "> 100 µM"
  },
  {
    "Molecule": "CC(C)[Si]1(C(C)C)OCC2OC(n3ccc(=O)[nH]c3=O)C([Se]c3ccccc3)C2O[Si](C(C)C)(C(C)C)O1 (stereo unspecified)",
    "Assay system": "CCRF-CEM leukemia",
    "Measured": "> 24.4 µM"
  },
  {
    "Molecule": "Nc1ncc2ncn(C3CCC(CO)O3)c2n1 (stereo unspecified)",
    "Assay system": "CCRF-CEM leukemia",
    "Measured": "> 100 µM"
  },
  {
    "Molecule": "O=C1C(=O)C2(CC1S(=O)(=O)c1ccccc1)c1ccccc1-c1ccccc12 (stereo unspecified)",
    "Assay system": "CCRF-CEM leukemia",
    "Measured": "58.2 µM"
  },
  {
    "Molecule": "COc1cc(NC2CCCCC2O)c2nc(-c3ccc(Cl)cc3)ccc2c1 (stereo unspecified)",
    "Assay system": "CCRF-CEM leukemia",
    "Measured": "68.5 µM"
  },
  {
    "Molecule": "Cc1cc(S(N)(=O)=O)c(S/C(=N\\NS(=O)(=O)c2ccccc2)c2ccc(Cl)cc2)cc1Cl",
    "Assay system": "CCRF-CEM leukemia",
    "Measured": "> 100 µM"
  },
  {
    "Molecule": "O=C(O)CCCCC1CCSS1 (stereo unspecified)",
    "Assay system": "CCRF-CEM leukemia",
    "Measured": "> 100 µM"
  },
  {
    "Molecule": "CCc1n[nH]c(=O)n1/N=C(\\C)c1ccccc1",
    "Assay system": "CCRF-CEM leukemia",
    "Measured": "> 100 µM"
  },
  {
    "Molecule": "COc1cc(N(C)C)c(OC)cc1C=C1C=CC=C1",
    "Assay system": "CCRF-CEM leukemia",
    "Measured": "> 100 µM"
  },
  {
    "Molecule": "C/C(C=O)=C/[C@@]1(C)O[C@@H](C)[C@@](C)(O)[C@@H]1O",
    "Assay system": "CCRF-CEM leukemia",
    "Measured": "> 100 µM"
  },
  {
    "Molecule": "CC(C)OP(=O)(O)c1ncc(-c2ccc(C(F)(F)F)cc2)c(NC2CCCCCC2)n1",
    "Assay system": "CCRF-CEM leukemia",
    "Measured": "> 100 µM"
  },
  {
    "Molecule": "CC1=NN(c2nc(N)nc(/C(C#N)=C\\c3ccc(-c4ccc([N+](=O)[O-])cc4)o3)n2)C(C)(C)C1",
    "Assay system": "CCRF-CEM leukemia",
    "Measured": "> 100 µM"
  },
  {
    "Molecule": "O=[N+]([O-])c1cccc2nccc(NCCN3CCOCC3)c12",
    "Assay system": "CCRF-CEM leukemia",
    "Measured": "> 64.8 µM"
  },
  {
    "Molecule": "CO/C(=N\\N=C\\c1ccc(Cl)c(Cl)c1)c1ccncc1",
    "Assay system": "CCRF-CEM leukemia",
    "Measured": "> 10 µM"
  },
  {
    "Molecule": "C[C@@H]1CC[C@H]2[C@H](C)C(OC3O[C@@H]4O[C@@]5(C)CC[C@H]6[C@H](C)CC[C@@H]([C@@H]3C)[C@@]46O5)O[C@@H]3O[C@@]4(C)CC[C@@H]1[C@]32O4 (stereo partly specified)",
    "Assay system": "CCRF-CEM leukemia",
    "Measured": "> 100 µM"
  },
  {
    "Molecule": "O=C1NC2(CCNCC2)Oc2ccccc21",
    "Assay system": "CCRF-CEM leukemia",
    "Measured": "> 100 µM"
  },
  {
    "Molecule": "O=C1Cc2cn[nH]c2-c2ccccc2N1",
    "Assay system": "CCRF-CEM leukemia",
    "Measured": "53.1 µM"
  },
  {
    "Molecule": "O=NNc1ccc(S(=O)(=O)c2ccc3ccccc3c2)cn1",
    "Assay system": "CCRF-CEM leukemia",
    "Measured": "> 100 µM"
  },
  {
    "Molecule": "C=CCN1CCC(c2cc(C(=O)OCC)[nH]c2-c2cc(C)no2)C1=O (stereo unspecified)",
    "Assay system": "CCRF-CEM leukemia",
    "Measured": "> 100 µM"
  },
  {
    "Molecule": "CCCNCCCCC(NC(C)=O)C(=O)NCc1ccccc1 (stereo unspecified)",
    "Assay system": "CCRF-CEM leukemia",
    "Measured": "> 100 µM"
  }
]

----------
Target or system NCI-H460 lung: recorded GI50 listed per item.

[
  {
    "Compound": "CCOC(=O)c1c(CN2CCN(C)CC2)nc2ccc(Cl)cc2c1-c1ccccc1",
    "GI50": "3.9 µM"
  },
  {
    "Compound": "CCc1ccc2c(c1)N(CCO)C1=C(C(=O)OC1)C2c1cc(OC)c(OC)c(OC)c1 (stereo not given)",
    "GI50": "0.178 µM"
  },
  {
    "Compound": "C=C1C[C@@H]2O[C@H]3[C@H]4[C@@H](CC[C@@](C)(OC(=O)CCC)[C@H]42)[C@@H](C)C(=O)O[C@@]3(C)CC[C@H]1OO",
    "GI50": "19.3 µM"
  },
  {
    "Compound": "O=C1Nc2ccc3c(c2/C1=C\\c1cc2c(cc1Br)OCO2)OCO3",
    "GI50": "0.35 µM"
  },
  {
    "Compound": "CCOC(=O)/C(=C\\c1ccc2ccccc2c1)P(=O)(OCC)OCC",
    "GI50": "2.71 µM"
  }
]

----------
- Tested on: OVCAR-8 ovarian
- Assay info: NCI tumour cell line growth inhibition, 48 h
Value kind: TGI (µM)

[
  {
    "Molecule": "COC(=O)c1c(O)ccc2c1c1cc3ccccc3c(O)c1n2CCc1ccc(OC)c(OC)c1",
    "Assay system": "OVCAR-8 ovarian",
    "Value kind": "TGI",
    "Bound operator": ">",
    "Measured": 100
  },
  {
    "Molecule": "CCCCCCCCCCCCCCCCNC(=O)/C(=C\\c1ccc(Cl)c(Cl)c1)NC(=O)c1ccccc1",
    "Assay system": "OVCAR-8 ovarian",
    "Value kind": "TGI",
    "Bound operator": ">",
    "Measured": 100
  },
  {
    "Molecule": "O=C1NCN(c2ccccc2)C12CCN(CC1COc3ccccc3O1)CC2 (stereo not given)",
    "Assay system": "OVCAR-8 ovarian",
    "Value kind": "TGI",
    "Bound operator": ">",
    "Measured": 100
  },
  {
    "Molecule": "CC(=O)/C(=C\\I)c1ccccc1",
    "Assay system": "OVCAR-8 ovarian",
    "Value kind": "TGI",
    "Bound operator": "=",
    "Measured": 3.45
  },
  {
    "Molecule": "CSC1=Nc2c(c(C)c(-c3ccccc3)n2COC(CO)CO)C2=NC(=O)CC(C)N12 (stereo not given)",
    "Assay system": "OVCAR-8 ovarian",
    "Value kind": "TGI",
    "Bound operator": ">",
    "Measured": 100
  },
  {
    "Molecule": "CCOC1Oc2ccc(C)cc2C(=O)/C1=C\\Nc1ccc(S(N)(=O)=O)cc1 (stereo not given)",
    "Assay system": "OVCAR-8 ovarian",
    "Value kind": "TGI",
    "Bound operator": "=",
    "Measured": 27.7
  },
  {
    "Molecule": "COc1cc2cc(C(=O)N3CC(CCl)c4ccc([N+](C)(C)Cc5ccccc5[N+](=O)[O-])cc43)[nH]c2c(OC)c1OC (stereo not given)",
    "Assay system": "OVCAR-8 ovarian",
    "Value kind": "TGI",
    "Bound operator": ">",
    "Measured": 25.5
  },
  {
    "Molecule": "O=C(Nc1ccccc1)Oc1ccc(C(=S)Nc2ccc(Br)cc2)cc1",
    "Assay system": "OVCAR-8 ovarian",
    "Value kind": "TGI",
    "Bound operator": "=",
    "Measured": 29.2
  },
  {
    "Molecule": "CCOC(=O)[C@@H]1CSC(CC)=C(C(=O)O)N1",
    "Assay system": "OVCAR-8 ovarian",
    "Value kind": "TGI",
    "Bound operator": ">",
    "Measured": 100
  },
  {
    "Molecule": "CCOC(=O)c1c(CN2CCN(C)CC2)nc2ccc(Cl)cc2c1-c1ccccc1",
    "Assay system": "OVCAR-8 ovarian",
    "Value kind": "TGI",
    "Bound operator": "=",
    "Measured": 29.6
  }
]
